test: Oral bioavailability in squirrel monkey; assay type: ADME, organism-based; details: saimiri, in vivo
Reported property: bioavailability (%)

| Compound string | bioavailability (%) |
| --- | --- |
| CC(C)(F)C[C@H](N[C@@H](c1ccc(-c2ccc(C3(C(N)=O)CC3)cc2)cc1)C(F)(F)F)C(=O)NC1(C#N)CC1 | 5 |
| Cc1csc(-c2ccc([C@H](N[C@@H](CC(C)(C)F)C(=O)NC3(C#N)CC3)C(F)(F)F)cc2)n1 | 5 |

====

assay: Half life in po dosed rabbit; format: ADME, organism-based, Oryctolagus cuniculus; settings: in vivo
Reported property: half-life (h)

[a] CC(C)(F)C[C@H](N[C@@H](c1ccc(-c2ccc([C@@H](O)C(F)F)cc2)cc1)C(F)(F)F)C(=O)NC1(C#N)CC1
[b] CC(C)(F)C[C@H](N[C@@H](c1ccc(-c2ccc([C@H](O)C(F)F)cc2)cc1)C(F)(F)F)C(=O)NC1(C#N)CC1
Exam item: Pick the one with the larger half-life: a vs b Answer format: the label of the selected item.
Marked response: a

====

test: Oral bioavailability in rat; format: ADME, organism-based; settings: in vivo
Reported property: bioavailability (%)

// solved cases for bioavailability follow
| Compound string | Observed measurement |
| --- | --- |
| CC(C)(F)C[C@H](N[C@@H](c1ccc(-c2ccc([C@H](O)C(F)F)cc2)cc1)C(F)(F)F)C(=O)NC1(C#N)CC1 | 86 |
| CC(C)(F)C[C@H](N[C@@H](c1ccc(-c2ccc(C3(C(N)=O)CC3)cc2)cc1)C(F)(F)F)C(=O)NC1(C#N)CC1 | 8 |
| CC(C)(F)C[C@H](N[C@@H](c1ccc(-c2ccc(C(C)(C)O)cc2)cc1)C(F)(F)F)C(=O)NC1(C#N)CC1 | 24 |

[P] CC(C)(F)C[C@H](N[C@@H](c1ccc(-c2ccc(C3(O)CC3)cn2)cc1)C(F)(F)F)C(=O)NC1(C#N)CC1
[Q] CC(C)(F)C[C@H](N[C@@H](c1ccc(-c2ccc([C@@H](O)C(F)F)cc2)cc1)C(F)(F)F)C(=O)NC1(C#N)CC1
Exam item: // which entry reports the smaller bioavailability, P or Q ? Answer format: the label of the selected item.
Marked response: P

====

assay: Decrease in bone resorption assessed as corrected bone resorption measured as ratio of bone resorption IC50 x humanized rabbit cathepsin K IC50 to rabbit cathepsin K IC50 equation; type: functional, tissue-based, Bone element
pIC50: −log10 of the molar value.
Reported property: pIC50

[I] C[C@H](C(N)=O)c1ccc(-c2ccc([C@H](N[C@@H](CC(C)(C)F)C(=O)NC3(C#N)CC3)C(F)(F)F)cc2)cc1
[II] CC(C)(F)C[C@H](N[C@@H](c1ccc(-c2ccc([C@@H](O)C(F)F)cc2)cc1)C(F)(F)F)C(=O)NC1(C#N)CC1
[III] CC(C)(F)C[C@H](N[C@@H](c1ccc(-c2ccc(S(C)(=O)=O)cc2)cc1)C(F)(F)F)C(=O)NC1(C#N)CC1
Exam item: Descending by pIC50 please, for everything listed above. The labels, placed in the requested order, form the answer.
Marked response: III, II, I
(III: 8.30, II: 8.00, I: 7.46)

[1] CC(C)(F)C[C@H](N[C@@H](c1ccc(-c2ccc3ncccc3c2)cc1)C(F)(F)F)C(=O)NC1(C#N)CC1
[2] CC(C)(F)C[C@H](N[C@@H](c1ccc(-c2ccc(C3(C(N)=O)CC3)cn2)cc1)C(F)(F)F)C(=O)NC1(C#N)CC1
Exam item: Pick the one with the larger pIC50: 1 vs 2 Answer format: the label of the selected item.
Marked response: 1
(1: 8.10, 2: 7.46)

====

species on record: Homo sapiens; test: Selectivity ratio of IC50 for human cathepsin S to IC50 for humanized rabbit cathepsin K
Reported property: Ratio IC50

| Compound string | Reported property | Observed measurement |
| --- | --- | --- |
| CC(C)(F)C[C@H](N[C@@H](c1ccc(-c2ccc3ncccc3c2)cc1)C(F)(F)F)C(=O)NC1(C#N)CC1 | Ratio IC50 | 44 |
| CC(C)(F)C[C@H](N[C@@H](c1ccc(-c2ccc(C3(O)CC3)cn2)cc1)C(F)(F)F)C(=O)NC1(C#N)CC1 | Ratio IC50 | 210 |
| C[C@H](C(N)=O)c1ccc(-c2ccc([C@H](N[C@@H](CC(C)(C)F)C(=O)NC3(C#N)CC3)C(F)(F)F)cc2)cc1 | Ratio IC50 | 693 |
| CC(C)(F)C[C@H](N[C@@H](c1ccc(-c2ccc([C@H](O)C(F)F)cc2)cc1)C(F)(F)F)C(=O)NC1(C#N)CC1 | Ratio IC50 | 197 |
| CC(C)(F)C[C@H](N[C@@H](c1ccc(-c2ccc(C3(C(N)=O)CC3)cn2)cc1)C(F)(F)F)C(=O)NC1(C#N)CC1 | Ratio IC50 | 849 |

[1] CC(C)(F)C[C@H](N[C@@H](c1ccc(-c2ccc(S(C)(=O)=O)nc2)cc1)C(F)(F)F)C(=O)NC1(C#N)CC1
[2] CC(C)(F)C[C@H](N[C@@H](c1ccc(-c2ccc(C3(C(N)=O)CC3)cc2)cc1)C(F)(F)F)C(=O)NC1(C#N)CC1
Exam item: Pick the one with the larger Ratio IC50: 1 vs 2 Answer format: the label of the selected item.
Marked response: 2

====

species: Homo sapiens; experiment: Selectivity ratio of IC50 for human cathepsin S to IC50 for humanized rabbit cathepsin K
Reported property: Ratio IC50

// solved cases for Ratio IC50 follow
| Compound string | Observed measurement |
| --- | --- |
| CC(C)(F)C[C@H](N[C@@H](c1ccc(-c2ccc([C@@H](O)C(F)F)cc2)cc1)C(F)(F)F)C(=O)NC1(C#N)CC1 | 243 |
| CC(C)(F)C[C@H](N[C@@H](c1ccc(-c2ccc(S(C)(=O)=O)cc2)cc1)C(F)(F)F)C(=O)NC1(C#N)CC1 | 300 |
| Cc1csc(-c2ccc([C@H](N[C@@H](CC(C)(C)F)C(=O)NC3(C#N)CC3)C(F)(F)F)cc2)n1 | 777 |

[A] CC(C)(F)C[C@H](N[C@@H](c1ccc(-c2ccc(C3(O)CC3)cc2)cc1)C(F)(F)F)C(=O)NC1(C#N)CC1
[B] CC(C)(F)C[C@H](N[C@@H](c1ccc(-c2ccc(C(C)(C)O)cc2)cc1)C(F)(F)F)C(=O)NC1(C#N)CC1
Exam item: Pick the one with the larger Ratio IC50: A vs B Answer format: the label of the selected item.
Marked response: B
(B: 715, A: 106)

====

assay: Oral bioavailability in rhesus monkey; format: ADME, organism-based, Macaca mulatta; details: in vivo
Reported property: bioavailability (%)

[I] CC(C)(F)C[C@H](N[C@@H](c1ccc(-c2ccc([C@H](O)C(F)F)cc2)cc1)C(F)(F)F)C(=O)NC1(C#N)CC1
[II] CC(C)(F)C[C@H](N[C@@H](c1ccc(-c2ccc([C@@H](O)C(F)F)cc2)cc1)C(F)(F)F)C(=O)NC1(C#N)CC1
Exam item: Pick the one with the larger bioavailability: I vs II Answer format: the label of the selected item.
Marked response: I
(I: 139%, II: 64%)

====

species on record: Homo sapiens; assay: Selectivity ratio of IC50 for human cathepsin L to IC50 for humanized rabbit cathepsin K
Reported property: Ratio IC50

// solved cases for Ratio IC50 follow
| Compound string | Reported property | Observed measurement |
| --- | --- | --- |
| CC(C)(F)C[C@H](N[C@@H](c1ccc(-c2ccc(C3(O)CC3)cc2)cc1)C(F)(F)F)C(=O)NC1(C#N)CC1 | Ratio IC50 | 11000 |
| CC(C)(F)C[C@H](N[C@@H](c1ccc(-c2ccc(S(C)(=O)=O)nc2)cc1)C(F)(F)F)C(=O)NC1(C#N)CC1 | Ratio IC50 | 1300 |

[a] CC(C)(F)C[C@H](N[C@@H](c1ccc(-c2ccc(C3(O)CC3)cn2)cc1)C(F)(F)F)C(=O)NC1(C#N)CC1
[b] CC(C)(F)C[C@H](N[C@@H](c1ccc(-c2ccc([C@@H](O)C(F)F)cc2)cc1)C(F)(F)F)C(=O)NC1(C#N)CC1
Exam item: Pick the one with the larger Ratio IC50: a vs b Answer format: the label of the selected item.
Marked response: a
(a: 18000, b: 11900)

[A] Cc1csc(-c2ccc([C@H](N[C@@H](CC(C)(C)F)C(=O)NC3(C#N)CC3)C(F)(F)F)cc2)n1
[B] CC(C)(F)C[C@H](N[C@@H](c1ccc(-c2ccc(C3(C(N)=O)CC3)cn2)cc1)C(F)(F)F)C(=O)NC1(C#N)CC1
[C] CC(C)(F)C[C@H](N[C@@H](c1ccc(-c2ccc3ncccc3c2)cc1)C(F)(F)F)C(=O)NC1(C#N)CC1
Exam item: Give the ascending ranking of the items by reported Ratio IC50. The labels, placed in the requested order, form the answer.
Marked response: B, C, A
